# protocol.notes: NCI Yeast Anticancer Drug Screen. Data for the mlh1 rad18 strain (AID 175)
# cond: S. cerevisiae mlh1 rad18 strain growth inhibition; at 50.0 µM; active compounds read high
The panel holds about 79,000 compounds, 15% with a hit somewhere; the sample as a whole holds those more often.
This section presents compounds with their documented growth inhibition values.
recorded.endpoint: growth inhibition (%)

| compound | recorded.endpoint | reading |
| --- | --- | --- |
| O=C1COC(=O)/C1=C/c1ccccc1 | growth inhibition | -1.05 |
| O=C(CCBr)OCCOc1ccccc1 | growth inhibition | 2.7 |
| OCC12OCC(O1)C(O)C(O)C2O (stereo not drawn) | growth inhibition | -16.8 |
| CCNS(=O)(=O)c1ccc2c(c1)nc(C)n2CC | growth inhibition | 11.5 |
| CC12CCC[C@@](C)(C(=O)OC3OC(CO)C(O)C(O)C3O)[C@H]1CCC13CC4CC(OC4(CO)[C@H]1O)[C@@H]23 (stereo partly drawn) | growth inhibition | -17.9 |
| NC(=O)N/N=C1\CCc2ccccc2C1 | growth inhibition | -2.8 |
| CC(=O)Oc1cc(C)c2c(c1C)C1OC(=O)C(C)C1CC2 (stereo not drawn) | growth inhibition | 17.1 |
| CCOC(=O)Nc1ccn(C2OC(COC(C)=O)C(OC(C)=O)C2OC(C)=O)c(=O)n1 (stereo not drawn) | growth inhibition | 8.3 |
| COc1ccc(C(=N)c2ccccc2C)cc1 | growth inhibition | -8.4 |
| Cc1ccccc1C(=O)OC1CCCCC1 | growth inhibition | 5.7 |
| CCOC1(C)OC2OC(COC(C)=O)C(OC(C)=O)C(OC(N)=O)C2O1 (stereo not drawn) | growth inhibition | 15.2 |
| CCOC(=O)C1C(C)C2(C#N)C(=N)OC1(C)C2(C#N)C#N (stereo not drawn) | growth inhibition | -12.9 |
| CC1(C)CC(C2CC(C)(C)CC(C)(C)[C@H]2O)[C@@H](O)C(C)(C)C1 (stereo partly drawn) | growth inhibition | -19.9 |
| CCOC(=O)NCc1cccc2ccccc12 | growth inhibition | 2.5 |
| O=C(OC1COC(OCc2ccccc2)C(OC(=O)c2ccccc2)C1OC(=O)c1ccccc1)c1ccccc1 (stereo not drawn) | growth inhibition | 2.75 |
| COc1cc(C)c(OC)c(C/C=C(\C)CC2=C(CC(C)(C)O)C(=O)[C@]3(C)CCC[C@]3(C)C2)c1 | growth inhibition | 12.4 |
| NC(CSSCC(N)=NC1CCCCC1)=NC1CCCCC1 | growth inhibition | 20 |
| CC(C)=CCSC(N)N | growth inhibition | -1.7 |
| COC(=O)CCCCCCCCC(=O)OC | growth inhibition | 7.15 |
| COc1ccc(-c2cc(=O)c3c(O)c(OC)c(O)c(OC)c3o2)cc1OC | growth inhibition | 20 |
| CC(=O)c1ccc2c(Br)ccc3c2c1CC3 | growth inhibition | 9.55 |
| CCCC1=C(CC)C(C(=O)Nc2c(C)cccc2C)=NC(S)N1 (stereo not drawn) | growth inhibition | -19.1 |
| COc1cc(-c2cc(=O)c3cc4c(=O)cc(-c5cc(OC)c(OC)c(OC)c5)oc4cc3o2)cc(OC)c1OC | growth inhibition | -5 |
| Nc1cc2c(cn1)[nH]c1ccccc12 | growth inhibition | -2.35 |
| O=C(CCCCCCCCC(=O)OCC1OC(n2cnc3c(=O)[nH]cnc32)C(O)C1O)OCC1OC(n2cnc3c(=O)[nH]cnc32)C(O)C1O (stereo not drawn) | growth inhibition | -35.3 |
| C[Si](C)(C)c1ccc(C(=O)O)cc1 | growth inhibition | 10.2 |
| CC(=O)OCC1OC(n2c3c(cc(C#N)c2=S)CCCCCC3)C(OC(C)=O)C(OC(C)=O)C1OC(C)=O (stereo not drawn) | growth inhibition | 33.4 |
| Cc1ccc(C(=O)Nc2ccc([N+](=O)[O-])cc2)cc1 | growth inhibition | -2.95 |
| CC(SC(=S)Nc1ccc(Cl)cc1)C(=O)O (stereo not drawn) | growth inhibition | 12.3 |
| CCOC(=O)C1=C(C)NC(C)=C(C(=O)OCC)C1C | growth inhibition | -6.8 |
| O=C(c1ccccc1C(=O)N1CCCO1)N1CCCO1 | growth inhibition | 16.9 |
| O=[N+]([O-])c1ccc(/C=C/[P+](c2ccccc2)(c2ccccc2)c2ccccc2)o1 | growth inhibition | 93.7 |
| c1ccc(N2CCN(c3ccccc3)C2)cc1 | growth inhibition | 11.5 |
| Cc1ccc(C)c(CNC(=O)NC(C)(C)C)c1 | growth inhibition | -0.75 |
| CCSc1n[nH]c(=O)nc1SC | growth inhibition | -0.35 |
| CC(C)C[C@H](NC(=O)[C@H](CCc1ccccc1)NC(=O)c1ccc2ccccc2n1)B(O)O | growth inhibition | 82.5 |
| Cc1cc(C)[n+]([O-])c(C)c1 | growth inhibition | -2.85 |
| CCC1(C(=O)O)NC(=O)NC1=O (stereo not drawn) | growth inhibition | -4.25 |
| O=C1CCC(=O)C(C(=O)CCC(=O)Nc2cccc(Cl)c2)C1 (stereo not drawn) | growth inhibition | -4.9 |
| CN1CCCCC1CCN1CCCCC1 (stereo not drawn) | growth inhibition | 1.3 |
| COC(=O)C1=C(O)C(C(=O)OC)[C@@]2(O)[C@@H](C(=O)OC)CC[C@@H]1[C@@H]2C(=O)OC (stereo partly drawn) | growth inhibition | 8.95 |
| CCOC(=O)CCC(C(=O)OCC)C(C)C(=O)OCC (stereo not drawn) | growth inhibition | -15.2 |
| COc1cc2cccc(NC(=O)c3cc(OC)c(OC)c(OC)c3Br)c2cc1OC | growth inhibition | 20.7 |
| OC(c1ccccc1)(C1CCNCC1)C1CC1 (stereo not drawn) | growth inhibition | -6.45 |
| CCCCC[N+]1([O-])CCOCC1 | growth inhibition | 1.05 |
| CCCOCOCCC | growth inhibition | -27.5 |
| COc1ccccc1Nc1n[nH]c(=S)s1 | growth inhibition | 5.05 |
| CC(CCC(=O)O)(CCC(=O)O)[N+](=O)[O-] | growth inhibition | -8.8 |
